- Tested on: HL-60(TB) leukemia
- protocolDescription: NCI-60 one-dose screen, 48 h
- recordedConditions: 10 µM unless noted
About 83,000 compounds went through this panel and 20% of them were active in at least one assay; those are over-represented in the sample as a whole. Activity calls are given as the source filed them. How the source made its calls: active means growth percent below 10; inactive means the rest.
Possible outcomes: active, inactive

molecule: COC(=O)c1cc2c(/C=C3/NC(=S)NC3=O)coc2n1C
assignedLabel: inactive

molecule: CC(C)C(=O)c1ccc(Cl)s1
assignedLabel: inactive

molecule: CC1(C)CC2=C3C=C[C@@H]4[C@@]5(C)CCC(=O)C(C)(C)[C@@H]5CC[C@@]4(C)[C@]3(C)CC[C@@]2(C(=O)O)C[C@H]1O
assignedLabel: inactive

molecule: Fc1cccc(-c2ccc3c(c2)C2(CCNCC2)CN3)c1
assignedLabel: inactive

molecule: CCCCOCC(=O)NC(NP(=O)(N(C)C)N(C)C)C(Cl)(Cl)Cl (stereo unspecified)
assignedLabel: inactive

molecule: COc1cc(NCCCN)c2ncccc2c1
assignedLabel: inactive

molecule: Cc1ccc(C(=O)Nc2nc3c(s2)CN(Cc2ccccc2)CC3)cn1
assignedLabel: inactive

molecule: CC(Br)C(Br)c1cc2c(cc1Br)OCO2 (stereo unspecified)
assignedLabel: inactive

molecule: O=C1c2ccccc2C(=O)c2c([N+](=O)[O-])ccc(Cl)c21
assignedLabel: inactive

molecule: COc1ccc(Cn2cc(COc3cc(/C=C/C(=O)c4cc(OC)c(OC)c(OC)c4)ccc3OC)nn2)cc1
assignedLabel: inactive

molecule: NC(=O)CC1(O)C=C(Br)C(=O)C(Br)=C1
assignedLabel: active

molecule: CCOC(=O)c1c(C(F)(F)F)n([O-])c2ccc(Cl)cc2[n+]1=O
assignedLabel: active

molecule: CC(C)Cc1cc(CNC(=O)C2[C@H]3CN(C(=O)c4ccccc4)C[C@@H]23)nn1-c1ccccc1 (stereo partly specified)
assignedLabel: inactive

molecule: COc1cc(Cl)c(C)cc1NC(=O)c1cc2ccccc2cc1O
assignedLabel: active

molecule: O=C(Nc1ccc(Cl)cc1)c1cc(NCc2cc(O)ccc2O)ccc1O
assignedLabel: active

molecule: CC1=NN(c2ccccc2Cl)C(=O)/C1=C\c1cn(S(=O)(=O)c2ccc(C)cc2)c2ccccc12
assignedLabel: inactive

molecule: Cc1oc(-c2ccc(Cl)cc2Cl)cc1C(=O)Nc1nccs1
assignedLabel: inactive

molecule: CCOC(=O)c1cc(C(=O)c2ccc(Br)cc2)n2ccc(/C=C/c3cc[n+](CC(=O)c4ccc(OC)cc4)cc3)cc12
assignedLabel: inactive

molecule: COc1ccc2oc(=O)cc(Cn3cc(Cn4cnc5c4c(=O)n(C)c(=O)n5C)nn3)c2c1
assignedLabel: inactive

molecule: Cn1cc(CC2CC(=O)N(c3ccccc3)C2=O)sc1=NC(=O)c1ccccc1 (stereo unspecified)
assignedLabel: inactive

molecule: COc1ccc(Oc2nc(Nc3ccc(N4CCCCC4)nc3)ncc2NC(=O)c2cc(OC)cc(OC)c2)cc1
assignedLabel: active

---

- Test system: COLO 205 colon
- protocolDescription: NCI-60 one-dose screen, 48 h (100 = growth as untreated, 0 = no growth, -100 = all killed)
- recordedConditions: 10 µM
The panel holds about 83,000 compounds, 20% with a hit somewhere; the sample as a whole holds those more often.
measuredEndpoint: growth (%)

molecule: COc1cc(NCCCCCN=C(N)N)c2ncccc2c1
unit: %
resultValue: 54.9
--
molecule: CC1([N+](=O)[O-])COP(=O)(Nc2ccc(F)cc2)OC1 (stereo unspecified)
unit: %
resultValue: 107
--
molecule: CCC1CN1P(=O)(OCCOC)N1CC1CC (stereo unspecified)
unit: %
resultValue: 119
--
molecule: [N-]=[N+]=NC(C(=O)O)c1ccccc1 (stereo unspecified)
unit: %
resultValue: 104
--
molecule: C=CC(O)CN1CC1CC (stereo unspecified)
unit: %
resultValue: 114
--
molecule: Nc1ccc(N)c2c1Oc1ccccc1O2
unit: %
resultValue: 106
--
molecule: C[C@]12C[C@H](O)[C@H]3[C@@H](CCC4=CC(=O)CC[C@@]43C)[C@@H]1CC[C@@H]2O
unit: %
resultValue: 99.8
--
molecule: CN1C(=O)NC(=O)C(N=Nc2ccc(Cl)cc2)C1=O (stereo unspecified)
unit: %
resultValue: 137
--
molecule: Nc1cccc(CC(=O)Nc2ccc(S(=O)(=O)F)cc2)c1
unit: %
resultValue: 95.8
--
molecule: OC1(c2ccc(Cl)cc2Cl)c2ccccc2C2=NCCN21 (stereo unspecified)
unit: %
resultValue: 90.6
--
molecule: CC(C)CCC[C@@H](C)[C@H]1CC[C@H]2[C@@H]3CC=C4C[C@@H](OC(=O)Cc5ccc(N(CCCl)CCCl)cc5)CC[C@]4(C)[C@H]3CC[C@]12C
unit: %
resultValue: 117

---

# growth values compiled below
- System: MALME-3M melanoma
- protocolDescription: NCI-60 one-dose screen, 48 h (100 = growth as untreated, 0 = no growth, -100 = all killed)
- recordedConditions: 10 µM unless noted
About 83,000 compounds went through this panel and 20% of them were active in at least one assay; those are over-represented in the sample as a whole.

compound: CC[C@H](C)[C@H](NC(=O)Nc1ccccc1)C(=O)N(C)[C@H](C[C@@H](OC(C)=O)c1nc(C(=O)N[C@@H](Cc2ccccc2)C[C@H](C)C(=O)OC)cs1)C(C)C
growth [%]: 41.4
--
compound: CC[CH2][Pb]([CH2]CC)([CH2]CC)[O]C(=O)C(F)(F)F
growth [%]: -89.2
--
compound: CCC(CO)NC1CCCCC1 (stereo unspecified)
growth [%]: 86.1
--
compound: Cc1nnc([S-])s1.[Au+].c1ccc([PH+](c2ccccc2)c2ccccc2)cc1
growth [%]: -61.6
--
compound: O=C(CC1(O)C(=O)Nc2ccc(F)cc21)c1ccc(C(=O)NCC2CCC3(CC2)OOC2(CCCCC2)OO3)cc1 (stereo unspecified)
growth [%]: -35.8
--
compound: CNC(=O)Oc1cc(C(C)C)ccc1Sc1ccc(C(C)C)cc1OC(=O)NC
growth [%]: 62.7
--
compound: O=C1NC(=O)C(CN2C(=O)C3(c4ccccc42)[C@H](Cl)C(=O)N3c2ccccc2)C(=O)N1 (stereo partly specified)
growth [%]: 95.4
--
compound: CC(C)N=C(NC(C)C)N1CC1
growth [%]: 124
--
compound: CC1(C)N=C(N)N=C(N)N1c1ccc(CCCCc2ccc(Cl)cc2S(=O)(=O)F)c(Cl)c1
growth [%]: 39.3
--
compound: CC1(C)N=C(N)N=C(N)N1c1ccc(OCCCCNC(=O)c2ccc(S(=O)(=O)F)cc2)c(Cl)c1
growth [%]: 71.3
--
compound: N#[N+]c1cnc([O-])[nH]c1=O
growth [%]: 105
--
compound: CC(=O)[O][Hg][c]1ccccc1
growth [%]: -88
--
compound: S=P(N1CCCCCC1)(N1CC1)N1CC1
growth [%]: 90.3
--
compound: CCC[CH2][Sn]1([CH2]CCC)[O]C(=O)c2cccc([N+](=O)[O-])c2C(=O)[O]1
growth [%]: -88.4
--
compound: Oc1ccccc1OB(Oc1ccccc1O)N(CCCl)CCCl
growth [%]: 89.9
--
compound: CC1=C(SCCC(=O)OCC(=O)NCCC[Te]c2ccccc2)C(=O)c2ccccc2C1=O
growth [%]: -7.94
--
compound: Cc1ccc(C(=O)C2CN(C)CCC2(O)c2ccc(C)cc2)cc1 (stereo unspecified)
growth [%]: 120
--
compound: CO[C@@H](c1ccccc1Cl)[C@H](C)OC(N)=O
growth [%]: 93.5
--
compound: COC1=CC(=O)OC(CCc2ccc3c(c2)OCO3)C1 (stereo unspecified)
growth [%]: 136
--
compound: CCOc1c(Cl)cc(CNC(C)C(O)c2ccccc2)cc1OC (stereo unspecified)
growth [%]: 46.9
--
compound: C[C@]12CC[C@H]3[C@@H](C[C@@H]4N=C(c5ccc(O)cc5)S[C@@]45C[C@H](O)CC[C@]35C)[C@@H]1CC[C@@H]2O
growth [%]: 72.4

---

- System: M14 melanoma
- protocolDescription: NCI-60 one-dose screen, 48 h (100 = growth as untreated, 0 = no growth, -100 = all killed)
- recordedConditions: 10 µM unless noted
The panel holds about 83,000 compounds, 20% with a hit somewhere; the sample as a whole holds those more often.
// values below are reported growth

molecule: ClCCN(CCCl)c1ccc(C=NCCc2c[nH]c3ccccc23)cc1
growth, %: 91.6

molecule: O=C(O)CNC(=O)c1ccccc1
growth, %: 99.4

molecule: CC(=O)OC1CCC2(C)C(=CCC3C4CC(CN5CC5)C(=O)C4(C)CCC32)C1 (stereo unspecified)
growth, %: 93.4

molecule: CCOc1cc(C=C(C#N)C#N)cc(Br)c1O
growth, %: 98

molecule: O=C(/C=C/c1ccccc1)N[C@@H](CO)Cc1cnc[nH]1
growth, %: 105

molecule: OB([O][Hg][c]1ccccc1)[O][Hg][c]1ccccc1
growth, %: -80.9

molecule: c1ccc(-c2ccc3ccccc3[o+]2)cc1
growth, %: 96.8

molecule: Cc1cccc(N(C)c2cccc3c2C(=O)[Se]C3)c1C
growth, %: 26.7

molecule: C[C@@H]1CC[C@@H]2[C@@H]1[C@H](OC(=O)/C=C/C1CCCCC1)[C@]1(C3CCCCC3)C[C@@H](OC(=O)CO)[C@@]2(C)O1
growth, %: 65.2

molecule: C=CCC1(CC)C(=O)NC(=S)NC1=O
growth, %: 115

molecule: CC(=O)N(C)C1=Nc2ccc(Cl)cc2C(c2ccccc2)=[N+]([O-])C1
growth, %: 114
